target: human Cav2.2 channels (Homo sapiens, UniProt Q00975); test: SH-SY5Y neuroblastoma FLIPR assay of KCl-evoked calcium responses in presence of nifedipine; format: cell-based; conditions: SH-SY5Y cells, 90 mM KCl and 5 mM CaCl2, 10 µM nifedipine, 5 min pre-treatment; read-out: IC50
Sequence (Q00975 whole entry): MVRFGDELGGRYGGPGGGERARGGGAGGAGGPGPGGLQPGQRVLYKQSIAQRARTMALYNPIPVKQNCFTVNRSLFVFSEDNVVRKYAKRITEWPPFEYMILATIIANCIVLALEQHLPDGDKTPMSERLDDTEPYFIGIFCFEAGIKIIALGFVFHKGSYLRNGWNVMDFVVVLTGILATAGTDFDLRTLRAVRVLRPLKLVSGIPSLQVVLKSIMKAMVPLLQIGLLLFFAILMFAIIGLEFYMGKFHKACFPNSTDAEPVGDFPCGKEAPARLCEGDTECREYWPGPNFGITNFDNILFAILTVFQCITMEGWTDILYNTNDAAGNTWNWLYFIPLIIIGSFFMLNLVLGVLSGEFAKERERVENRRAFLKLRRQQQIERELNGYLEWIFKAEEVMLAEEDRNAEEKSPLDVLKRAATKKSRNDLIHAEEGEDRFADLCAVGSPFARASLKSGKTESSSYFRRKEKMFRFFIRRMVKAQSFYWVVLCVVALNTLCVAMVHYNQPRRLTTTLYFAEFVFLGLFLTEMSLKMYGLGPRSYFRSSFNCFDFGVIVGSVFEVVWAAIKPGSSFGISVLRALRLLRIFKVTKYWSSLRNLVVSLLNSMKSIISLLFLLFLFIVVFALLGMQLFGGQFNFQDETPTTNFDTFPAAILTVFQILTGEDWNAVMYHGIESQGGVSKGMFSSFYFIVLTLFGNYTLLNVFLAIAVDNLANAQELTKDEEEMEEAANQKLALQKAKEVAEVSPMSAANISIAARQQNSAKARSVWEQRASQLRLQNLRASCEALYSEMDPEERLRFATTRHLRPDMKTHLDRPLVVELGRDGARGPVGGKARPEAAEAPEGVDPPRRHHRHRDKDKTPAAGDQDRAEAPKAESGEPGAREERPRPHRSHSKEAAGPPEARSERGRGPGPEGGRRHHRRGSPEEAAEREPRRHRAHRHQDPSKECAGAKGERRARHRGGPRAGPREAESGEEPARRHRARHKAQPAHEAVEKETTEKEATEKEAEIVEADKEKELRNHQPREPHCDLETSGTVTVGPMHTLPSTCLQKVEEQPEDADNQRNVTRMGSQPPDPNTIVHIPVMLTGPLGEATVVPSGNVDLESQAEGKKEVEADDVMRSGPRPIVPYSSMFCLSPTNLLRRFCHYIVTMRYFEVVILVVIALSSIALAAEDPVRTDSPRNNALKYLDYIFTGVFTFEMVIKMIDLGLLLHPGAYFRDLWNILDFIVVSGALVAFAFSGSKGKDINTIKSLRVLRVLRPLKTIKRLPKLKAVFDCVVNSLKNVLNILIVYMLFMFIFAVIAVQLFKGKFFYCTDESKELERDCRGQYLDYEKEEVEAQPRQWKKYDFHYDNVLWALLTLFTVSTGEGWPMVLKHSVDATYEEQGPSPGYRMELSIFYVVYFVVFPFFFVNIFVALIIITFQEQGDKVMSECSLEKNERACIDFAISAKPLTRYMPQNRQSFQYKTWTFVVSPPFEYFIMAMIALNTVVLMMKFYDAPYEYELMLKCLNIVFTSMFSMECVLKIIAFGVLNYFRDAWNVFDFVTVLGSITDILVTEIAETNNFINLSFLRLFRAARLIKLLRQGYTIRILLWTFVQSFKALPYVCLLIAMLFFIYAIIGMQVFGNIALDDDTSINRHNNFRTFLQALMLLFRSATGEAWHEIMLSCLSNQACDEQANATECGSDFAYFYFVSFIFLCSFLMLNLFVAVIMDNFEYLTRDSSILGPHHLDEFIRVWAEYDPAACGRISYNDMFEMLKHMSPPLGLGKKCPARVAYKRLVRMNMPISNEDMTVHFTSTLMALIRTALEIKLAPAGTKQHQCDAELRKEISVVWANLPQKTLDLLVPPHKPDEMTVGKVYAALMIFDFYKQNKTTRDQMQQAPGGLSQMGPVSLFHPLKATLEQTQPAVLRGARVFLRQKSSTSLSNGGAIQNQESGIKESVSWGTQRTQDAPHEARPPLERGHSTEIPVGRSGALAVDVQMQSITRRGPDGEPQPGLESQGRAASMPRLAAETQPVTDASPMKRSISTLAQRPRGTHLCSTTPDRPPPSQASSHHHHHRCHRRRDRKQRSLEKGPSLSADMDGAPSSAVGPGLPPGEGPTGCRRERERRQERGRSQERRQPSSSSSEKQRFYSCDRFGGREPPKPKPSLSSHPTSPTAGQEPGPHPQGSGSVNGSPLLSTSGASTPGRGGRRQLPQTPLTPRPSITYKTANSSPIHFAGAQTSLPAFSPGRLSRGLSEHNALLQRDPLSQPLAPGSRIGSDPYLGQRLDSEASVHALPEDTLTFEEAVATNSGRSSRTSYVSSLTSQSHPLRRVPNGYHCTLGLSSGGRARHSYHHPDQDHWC
Sequence (P54284 whole entry partner): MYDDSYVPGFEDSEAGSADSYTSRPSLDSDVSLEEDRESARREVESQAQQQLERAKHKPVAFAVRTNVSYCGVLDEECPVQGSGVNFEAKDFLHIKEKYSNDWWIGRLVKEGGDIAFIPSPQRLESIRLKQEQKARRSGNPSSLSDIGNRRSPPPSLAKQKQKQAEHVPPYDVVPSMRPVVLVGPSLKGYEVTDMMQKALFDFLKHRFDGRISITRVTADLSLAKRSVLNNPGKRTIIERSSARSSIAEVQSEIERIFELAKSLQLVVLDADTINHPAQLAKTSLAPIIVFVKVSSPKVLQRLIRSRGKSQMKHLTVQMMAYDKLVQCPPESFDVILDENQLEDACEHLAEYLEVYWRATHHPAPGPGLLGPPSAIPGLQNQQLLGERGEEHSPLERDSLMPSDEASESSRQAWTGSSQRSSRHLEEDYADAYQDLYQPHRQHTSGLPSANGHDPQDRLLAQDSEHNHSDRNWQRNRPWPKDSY
Sequence (P54289 25-956 partner limits assumed): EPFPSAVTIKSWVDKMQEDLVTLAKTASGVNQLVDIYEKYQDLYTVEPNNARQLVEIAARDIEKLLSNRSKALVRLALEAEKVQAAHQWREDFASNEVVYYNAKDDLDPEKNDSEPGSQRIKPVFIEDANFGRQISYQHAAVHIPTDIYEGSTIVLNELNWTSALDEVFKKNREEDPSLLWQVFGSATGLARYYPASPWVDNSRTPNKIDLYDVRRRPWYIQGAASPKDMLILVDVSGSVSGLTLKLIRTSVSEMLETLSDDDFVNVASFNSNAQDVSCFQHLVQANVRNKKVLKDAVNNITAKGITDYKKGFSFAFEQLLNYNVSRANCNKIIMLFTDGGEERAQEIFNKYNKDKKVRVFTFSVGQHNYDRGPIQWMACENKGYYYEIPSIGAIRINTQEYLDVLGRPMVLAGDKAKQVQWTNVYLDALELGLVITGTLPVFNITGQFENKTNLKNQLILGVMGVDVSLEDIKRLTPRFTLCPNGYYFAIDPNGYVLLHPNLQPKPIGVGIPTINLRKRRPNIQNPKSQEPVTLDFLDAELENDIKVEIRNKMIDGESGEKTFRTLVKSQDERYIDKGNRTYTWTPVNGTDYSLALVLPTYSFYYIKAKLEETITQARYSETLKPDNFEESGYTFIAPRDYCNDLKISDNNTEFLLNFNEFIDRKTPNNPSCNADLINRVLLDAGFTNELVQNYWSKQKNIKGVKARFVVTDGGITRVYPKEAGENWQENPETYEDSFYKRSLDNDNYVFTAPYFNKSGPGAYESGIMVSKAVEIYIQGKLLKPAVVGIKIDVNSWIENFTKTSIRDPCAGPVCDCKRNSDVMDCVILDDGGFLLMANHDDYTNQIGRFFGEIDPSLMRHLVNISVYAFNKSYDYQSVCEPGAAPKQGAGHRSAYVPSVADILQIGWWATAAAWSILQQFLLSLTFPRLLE
Sequence (P54289 957-1103 partner limits assumed): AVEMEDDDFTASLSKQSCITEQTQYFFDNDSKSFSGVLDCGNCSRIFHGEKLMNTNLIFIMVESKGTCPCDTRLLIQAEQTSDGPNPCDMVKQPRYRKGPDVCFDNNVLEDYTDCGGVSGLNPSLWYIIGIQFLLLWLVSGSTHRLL
readout-name: IC50 (µM)
Supply the numeric figure in µM, leaving out any unit text.

Previously resolved entries follow.
[
  {
    "item-smiles": "NCCCOc1ccc(C(=O)Nc2ccc(Oc3ccc(F)cc3)cc2)cc1",
    "assay-target": "human Cav2.2 channels (Homo sapiens, UniProt Q00975)",
    "unit-descriptor": "µM",
    "val": 764
  },
  {
    "item-smiles": "NCCCOc1ccc(C(=O)Nc2cccc(Oc3ccc(F)cc3)c2)cc1",
    "assay-target": "human Cav2.2 channels (Homo sapiens, UniProt Q00975)",
    "unit-descriptor": "µM",
    "val": 35
  },
  {
    "item-smiles": "Cl.N=C(N)NCCCOc1ccc(C(=O)Nc2cccc(Oc3ccc(F)cc3)c2)cc1",
    "assay-target": "human Cav2.2 channels (Homo sapiens, UniProt Q00975)",
    "unit-descriptor": "µM",
    "val": 185
  },
  {
    "item-smiles": "NCCCOc1ccc(C(=O)Nc2ccccc2Oc2ccc(F)cc2)cc1",
    "assay-target": "human Cav2.2 channels (Homo sapiens, UniProt Q00975)",
    "unit-descriptor": "µM",
    "val": 46
  }
]

Problem: For the molecule shown here, Cl.N=C(N)NCCCOc1ccc(C(=O)Nc2ccc(Oc3ccc(F)cc3)cc2)cc1 , give the reported IC50.
Result: 723
